System: coronavirus HCoV-229E
Test: CPE inhibition assay against HCoV-229E in Huh7.5 cells
Type: cell-based
Settings: Human coronavirus 229E, Huh7.5, read-out: HCoV-229E IC50
*1 amine or outer side, *2 acyl side, *3 side chain or, on linkers, in order; H or OH if unused. Where a SMILES comes first, the peptide text is derived from it. [ ]: non-standard residue; d: D form. Phe(ol) = N[CH](CO)Cc1ccccc1; CO = O=C([*:1])[*:2]
measure: IC50 (µM)
Give a bare numeral; the unit µM is implied.

Worked cases, IC50 given:
| molecule | unit | reportedValue |
| --- | --- | --- |
| NC(=O)c1ncn([C@@H]2O[C@H](CO)[C@@H](O)[C@H]2O)n1 | µM | 25.1 |
| CC(C)[C@H](NC(=O)[C@H](CCCNC(=N)N)NC(=O)N[C@@H](Cc1ccccc1)C(=O)O)C(=O)N[C@H](C=O)CCCNC(=N)N [antipain, Antipain] ({Phe-CO}-Arg-Val-Arg-aldehyde) | µM | 1.57 |
| CC(C)C(NC(=O)C(CCCNC(=N)N)NC(=O)NC(Cc1ccccc1)C(=O)O)C(=O)NC(CO)Cc1ccccc1 (stereo not drawn) [Omicsynin A3, Chymostatinol A] ({Phe-CO}-Arg-Val-[Phe(ol)]; configuration not given here) | µM | 57.4 |

Turning to the following molecule.
Record request: IC50 value, item "CC(C)C[C@H](NC(=O)[C@@H](NC(=O)N[C@@H](Cc1ccccc1)C(=O)O)[C@@H]1CCN=C(N)N1)C(=O)N[C@H](C=O)Cc1ccccc1"
23.7

----------
System: Huh7.5 cells
Experiment: 50% toxicity concentration (TC50) by CPE assay in Huh7.5 cells
Details: read-out: TC50, Table 10
*1 amine or outer side, *2 acyl side, *3 side chain or, on linkers, in order; H or OH if unused. Where a SMILES comes first, the peptide text is derived from it. CO = O=C([*:1])[*:2]
measure: CC50

Record request: CC50 value, item CC(C)[C@H](NC(=O)[C@H](CCCNC(=N)N)NC(=O)N[C@@H](Cc1ccccc1)C(=O)O)C(=O)N[C@H](C=O)CCCNC(=N)N [Omicsynin B4, Antipain] ({Phe-CO}-Arg-Val-Arg-aldehyde)
> 165 µM

----------
Test system: influenza virus A/wuhan/359/95 (H3N2)
Experiment: organism not typed
Format: cell-based
Conditions: MDCK, Table 9; CPE method; mean ± SD, three repeats; read-out: A/Wuhan/359/1995 (H3N2) IC50
*1 amine or outer side, *2 acyl side, *3 side chain or, on linkers, in order; H or OH if unused. Where a SMILES comes first, the peptide text is derived from it. CO = O=C([*:1])[*:2]
measure: pIC50
pIC50 is defined as minus the log10 of a concentration measured in mol/L.

Record request: pIC50 value, item CC(C)[C@H](NC(=O)[C@H](CCCNC(=N)N)NC(=O)N[C@@H](Cc1ccccc1)C(=O)O)C(=O)N[C@H](C=O)CCCNC(=N)N [antipain, Antipain] ({Phe-CO}-Arg-Val-Arg-aldehyde)
5.50
